Values from ChEMBL document CHEMBL4619796

- protocol.notes: Oral bioavailability in BALB/c mouse at 10 mg/kg by HPLC analysis
- Format: ADME, organism-based
- condition.summary: in vivo
property: bioavailability

>>> measured("COc1ncc(-c2ccc3ncn(C[C@@H](C)C(N)=O)c(=O)c3c2)cc1NS(=O)(=O)c1ccc(F)cc1Cl")
"56.2%"
>>> measured("CNC(=O)[C@H](C)Cn1cnc2ccc(-c3cnc(OC)c(NS(=O)(=O)c4cccc(C(F)(F)F)c4)c3)cc2c1=O")
"9%"

Here is the next item to consider.
Looking for the measured bioavailability of `CNC(=O)[C@H](C)Cn1cnc2ccc(-c3cnc(OC)c(NS(=O)(=O)c4ccc(F)cc4Cl)c3)cc2c1=O` , can you help?
59.4%

----------
- experimental.system: Phosphatidylinositol 4,5-bisphosphate 3-kinase catalytic subunit alpha isoform (Homo sapiens, UniProt P42336)
- protocol.notes: Inhibition of PI3Kalpha in human BT474 cells expressing P3KCA mutant assessed as reduction in AKT phosphorylation at residue S473 incubated for 2 hrs followed by insulin addition by ELISA
- Format: cell-based
- condition.summary: bt-474
- Sequence (P42336 whole entry, looked up, canonical isoform): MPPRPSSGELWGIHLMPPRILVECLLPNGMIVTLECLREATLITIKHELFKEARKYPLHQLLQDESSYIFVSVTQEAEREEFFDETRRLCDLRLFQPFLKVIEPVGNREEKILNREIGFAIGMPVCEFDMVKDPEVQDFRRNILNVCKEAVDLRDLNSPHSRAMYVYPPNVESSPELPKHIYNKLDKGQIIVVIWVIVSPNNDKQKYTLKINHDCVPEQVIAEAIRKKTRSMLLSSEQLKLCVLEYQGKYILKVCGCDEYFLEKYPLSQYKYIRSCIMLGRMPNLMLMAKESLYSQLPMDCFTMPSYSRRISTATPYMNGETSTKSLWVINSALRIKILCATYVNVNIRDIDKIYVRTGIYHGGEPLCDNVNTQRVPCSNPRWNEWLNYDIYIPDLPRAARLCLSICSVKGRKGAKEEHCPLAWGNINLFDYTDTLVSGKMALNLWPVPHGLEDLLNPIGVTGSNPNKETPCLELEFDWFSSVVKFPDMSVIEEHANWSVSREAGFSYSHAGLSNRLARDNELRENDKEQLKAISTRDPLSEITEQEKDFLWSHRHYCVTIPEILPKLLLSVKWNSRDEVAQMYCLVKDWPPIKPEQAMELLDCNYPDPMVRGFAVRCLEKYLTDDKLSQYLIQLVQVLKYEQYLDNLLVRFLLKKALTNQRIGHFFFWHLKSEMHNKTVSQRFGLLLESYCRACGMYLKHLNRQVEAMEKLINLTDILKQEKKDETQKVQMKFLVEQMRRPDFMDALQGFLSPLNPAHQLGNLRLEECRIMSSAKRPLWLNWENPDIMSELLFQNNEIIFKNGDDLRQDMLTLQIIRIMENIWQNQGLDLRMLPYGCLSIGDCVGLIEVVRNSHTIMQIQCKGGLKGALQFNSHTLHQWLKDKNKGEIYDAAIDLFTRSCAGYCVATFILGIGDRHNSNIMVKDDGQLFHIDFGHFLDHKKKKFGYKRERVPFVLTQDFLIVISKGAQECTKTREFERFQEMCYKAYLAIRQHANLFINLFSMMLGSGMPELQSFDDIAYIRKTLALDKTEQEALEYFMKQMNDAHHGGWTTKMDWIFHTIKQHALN
property: IC50 (nM)
Field: numeric (nM). Do not append units.

Looking for the measured IC50 of `CNC(=O)[C@H](C)Cn1cnc2ccc(-c3cnc(OC)c(NS(=O)(=O)c4ccc(F)cc4Cl)c3)cc2c1=O` , can you help?
12.1

----------
- Species: Homo sapiens
- protocol.notes: Selectivity ratio of IC50 for PI3Kgamma (unknown origin) using PIP2:3PS peptide as substrate preincubated for 15 mins followed by ATP addition at Km concentration and further incubated for 120 mins by ADP-Glo assay to IC50 for PI3Kalpha (unknown origin) using PIP2:3PS peptide as substrate preincubated for 15 mins followed by ATP addition at Km concentration and further incubated for 150 mins by ADP-Glo assay
property: Ratio IC50
// return a plain number; no unit text

Consider the reported Ratio IC50 for these compounds:
>>> measured("CNC(=O)[C@H](C)Cn1cnc2ccc(-c3cnc(OC)c(NS(=O)(=O)c4cccc(Cl)c4Cl)c3)cc2c1=O")
8.87
>>> measured("COc1ncc(-c2ccc3ncn(C[C@@H](C)C(=O)N(C)C(C)C)c(=O)c3c2)cc1NS(=O)(=O)c1ccc(F)cc1Cl")
1.06
>>> measured("COc1ncc(-c2ccc3ncn(C[C@@H](C)C(N)=O)c(=O)c3c2)cc1NS(=O)(=O)c1ccc(F)cc1Cl")
7.38

Looking for the measured Ratio IC50 of `COc1ncc(-c2ccc3ncn(C[C@@H](C)C(=O)NC4CC4)c(=O)c3c2)cc1NS(=O)(=O)c1ccc(F)cc1Cl` , can you help?
5.44

----------
- protocol.notes: Protein binding in human plasma measured after 4 hrs by LC-MS/MS analysis
- Assay type: ADME, cell-free
- condition.summary: read-out: PPB (converted)
property: fraction unbound at 4 h
// return a plain number; no unit text

Looking for the measured fraction unbound at 4 h of `CNC(=O)[C@H](C)Cn1cnc2ccc(-c3cnc(OC)c(NS(=O)(=O)c4ccc(F)cc4Cl)c3)cc2c1=O` , can you help?
0.014

----------
- protocol.notes: Clearance in Beagle dog cryopreserved hepatocytes incubated for 10 mins under shaking condition by LC-MS/MS analysis
- Format: ADME, cell-based, Canis lupus familiaris, Hepatocyte
- condition.summary: read-out: CLH
property: CLint scaled

Looking for the measured CLint scaled of `CNC(=O)[C@H](C)Cn1cnc2ccc(-c3cnc(OC)c(NS(=O)(=O)c4ccc(F)cc4Cl)c3)cc2c1=O` , can you help?
< 44 mL/min/kg

----------
- protocol.notes: Metabolic stability in Beagle dog liver microsomes assessed as parent compound remaining at 10 uM preincubated for 10 mins in water bath followed by NADPH addition and measured after 60 mins by LC-MS/MS analysis
- Format: ADME, Canis lupus familiaris, Microsome
- condition.summary: read-out: Stability
property: remaining at 1 h, 10 µM (%)
Field: numeric (%). Do not append units.

Looking for the measured remaining at 1 h, 10 µM of `CNC(=O)[C@H](C)Cn1cnc2ccc(-c3cnc(OC)c(NS(=O)(=O)c4ccc(F)cc4Cl)c3)cc2c1=O` , can you help?
53.9

----------
Measured Cmax, listed per entry.
- protocol.notes: Cmax in BALB/c mouse at 10 mg/kg, po by HPLC analysis
- Format: ADME, organism-based
- Design: dose 10 mg/kg, route oral
- condition.summary: in vivo
Field: numeric (µM). Do not append units.

>>> measured("CNC(=O)[C@H](C)Cn1cnc2ccc(-c3cnc(OC)c(NS(=O)(=O)c4cccc(Cl)c4Cl)c3)cc2c1=O")
24

Looking for the measured Cmax of `CNC(=O)[C@H](C)Cn1cnc2ccc(-c3cnc(OC)c(NS(=O)(=O)c4ccc(F)cc4Cl)c3)cc2c1=O` , can you help?
37

Another compound to look at: `COc1ncc(-c2ccc3ncn(C[C@@H](C)C(=O)NC4CCC4)c(=O)c3c2)cc1NS(=O)(=O)c1ccc(F)cc1Cl`
4.73

Another compound to look at: `CNC(=O)[C@H](C)Cn1cnc2ccc(-c3cnc(OC)c(NS(=O)(=O)c4ccc(Cl)cc4Cl)c3)cc2c1=O`
37

Another compound to look at: `COCCNC(=O)[C@H](C)Cn1cnc2ccc(-c3cnc(OC)c(NS(=O)(=O)c4ccc(F)cc4Cl)c3)cc2c1=O`
9.13

Another compound to look at: `CNC(=O)[C@H](C)Cn1cnc2ccc(-c3cnc(OC)c(NS(=O)(=O)c4ccc(F)cc4)c3)cc2c1=O`
5

Another compound to look at: `CNC(=O)[C@H](C)Cn1cnc2ccc(-c3cnc(OC)c(NS(=O)(=O)c4cccc(C(F)(F)F)c4)c3)cc2c1=O`
24.7

Another compound to look at: `COc1ncc(-c2ccc3ncn(C[C@@H](C)C(N)=O)c(=O)c3c2)cc1NS(=O)(=O)c1ccc(F)cc1Cl`
4.45

----------
- Organism: Homo sapiens
- protocol.notes: Selectivity ratio of IC50 for PI3Kgamma (unknown origin) using PIP2:3PS peptide as substrate preincubated for 15 mins followed by ATP addition at Km concentration and further incubated for 120 mins by ADP-Glo assay to IC50 for PI3Kalpha (unknown origin) using PIP2:3PS peptide as substrate preincubated for 15 mins followed by ATP addition at Km concentration and further incubated for 150 mins by ADP-Glo assay
Measured Ratio IC50, listed per entry.
// return a plain number; no unit text

>>> measured("COc1ncc(-c2ccc3ncn(CC(N)C(N)=O)c(=O)c3c2)cc1NS(=O)(=O)c1ccc(F)cc1Cl (racemic)")
7.39
>>> measured("CNC(=O)[C@H](C)Cn1cnc2ccc(-c3cnc(OC)c(NS(=O)(=O)c4cc(C(F)(F)F)cc(C(F)(F)F)c4)c3)cc2c1=O")
17.3

Looking for the measured Ratio IC50 of `CNC(=O)[C@H](C)Cn1cnc2ccc(-c3cnc(CO)c(NS(=O)(=O)c4ccc(F)cc4Cl)c3)cc2c1=O` , can you help?
12.5

Another molecule to look at: `CCc1ncc(-c2ccc3ncn(C[C@@H](C)C(=O)NC)c(=O)c3c2)cc1NS(=O)(=O)c1ccc(F)cc1Cl`
14.4

Another molecule to look at: `CCC(CC)NC(=O)[C@H](C)Cn1cnc2ccc(-c3cnc(OC)c(NS(=O)(=O)c4ccc(F)cc4Cl)c3)cc2c1=O`
7.92

Another molecule to look at: `COc1ncc(-c2ccc3ncn(CC(F)(F)C(N)=O)c(=O)c3c2)cc1NS(=O)(=O)c1ccc(F)cc1Cl`
3.15

Another molecule to look at: `CNC(=O)[C@H](C)Cn1cnc2ccc(-c3cnc(OC)c(NS(=O)(=O)c4cccc(C(F)(F)F)c4)c3)cc2c1=O`
10.4

----------
- experimental.system: Phosphatidylinositol 4,5-bisphosphate 3-kinase catalytic subunit alpha isoform (Homo sapiens, UniProt P42336)
- protocol.notes: Inhibition of PI3Kalpha (unknown origin) using PIP2:3PS peptide as substrate preincubated for 15 mins followed by ATP addition at Km concentration and further incubated for 150 mins by ADP-Glo assay
- Sequence (P42336 whole entry, canonical isoform): as the sequence (P42336 whole entry, looked up, canonical isoform) above
Labelling: IC50 reported below 3 nM becomes Condition met; at or above becomes Condition not met.

>>> classification("COc1ncc(-c2ccc3ncn(C[C@@H](C)C(N)=O)c(=O)c3c2)cc1NS(=O)(=O)c1ccc(F)cc1Cl")
"Condition met"
>>> classification("CNC(=O)[C@H](C)Cn1cnc2ccc(-c3cnc(OC)c(NS(=O)(=O)c4ccc(Cl)c(Cl)c4)c3)cc2c1=O")
"Condition not met"
>>> classification("COc1ncc(-c2ccc3ncn(C[C@@H](C)C(=O)NC4CC4)c(=O)c3c2)cc1NS(=O)(=O)c1ccc(F)cc1Cl")
"Condition met"
>>> classification("COc1ncc(-c2ccc3ncn(C[C@@H](C)C(=O)N4CCOCC4)c(=O)c3c2)cc1NS(=O)(=O)c1ccc(F)cc1Cl")
"Condition not met"
>>> classification("COCCNC(=O)[C@H](C)Cn1cnc2ccc(-c3cnc(OC)c(NS(=O)(=O)c4ccc(F)cc4Cl)c3)cc2c1=O")
"Condition not met"

Answer whether the compound `COc1ncc(-c2ccc3ncn(C[C@@H](C)C(=O)NCCF)c(=O)c3c2)cc1NS(=O)(=O)c1ccc(F)cc1Cl` has IC50 strictly less than 3 nM
Condition met

Another compound to look at: `COc1ncc(-c2ccc3ncn(C[C@@H](C)C(=O)NCC(F)(F)F)c(=O)c3c2)cc1NS(=O)(=O)c1ccc(F)cc1Cl`
Condition not met

Another compound to look at: `COc1ncc(-c2ccc3ncn(C[C@@H](C)C(=O)NC(C)C)c(=O)c3c2)cc1NS(=O)(=O)c1ccc(F)cc1Cl`
Condition not met

Another compound to look at: `CCOc1ncc(-c2ccc3ncn(C[C@@H](C)C(=O)NC)c(=O)c3c2)cc1NS(=O)(=O)c1ccc(F)cc1Cl`
Condition not met

Another compound to look at: `CNC(=O)[C@H](C)Cn1cnc2ccc(-c3cnc(OC)c(NS(=O)(=O)c4cccc(C(F)(F)F)c4)c3)cc2c1=O`
Condition not met

Another compound to look at: `CNC(=O)[C@H](C)Cn1cnc2ccc(-c3cnc(OC)c(NS(=O)(=O)c4ccc(F)cc4Cl)c3)cc2c1=O`
Condition met

Another compound to look at: `COc1ncc(-c2ccc3ncn(CCC(N)=O)c(=O)c3c2)cc1NS(=O)(=O)c1ccc(F)cc1Cl`
Condition met

Another compound to look at: CNC(=O)C(C)Cn1cnc2ccc(-c3cnc(C(F)(F)F)c(NS(=O)(=O)c4ccc(F)cc4Cl)c3)cc2c1=O (racemic)
Condition met

Another compound to look at: `CNC(=O)[C@H](C)Cn1cnc2ccc(-c3cnc(OC)c(NS(=O)(=O)c4c(C)noc4C)c3)cc2c1=O`
Condition not met

Another compound to look at: `CNC(=O)[C@H](C)Cn1cnc2ccc(-c3cnc(OC)c(NS(=O)(=O)c4sccc4C)c3)cc2c1=O`
Condition not met

Another compound to look at: `COc1ncc(-c2ccc3ncn(C[C@@H](C)C(=O)NCCO)c(=O)c3c2)cc1NS(=O)(=O)c1ccc(F)cc1Cl`
Condition met
